Data origin: ChEMBL document CHEMBL3044873

System: Chilo suppressalis
Experiment: Potentiation of fenitrothion-induced insecticidal activity against OP-susceptible Chilo suppressalis (rice stem borer) S strain assessed as synergistic ratio at 1:10 fenitrothion to compound ratio relative to fenitrothion alone
Type: functional

smiles_data	fold change (FC)
Cc1cc(OC(=O)N(C)C)nc(N(C)C)n1	1
CN(C)C(=O)Oc1cc(-c2ccccc2)on1	0.9
Cc1cc(OC(=O)N(C)C)ccc1[N+](=O)[O-]	0.7
CSc1ccc(OC(=O)N(C)C)cc1C	0.9
CCN(CC)c1nc(C)cc(OC(=O)N(C)C)n1	1

---

Entries annotated with measured fold change (FC)
Tested on: Chilo suppressalis
Test: Potentiation of fenitrothion-induced insecticidal activity against OP-resistant Chilo suppressalis Hata-f (rice stem borer) assessed as synergistic ratio at 1:10 fenitrothion to compound ratio relative to fenitrothion alone
Format: functional

molecule	fold change (FC)
CCNC(=O)Oc1ccc([N+](=O)[O-])c(C)c1	0.7
CN(C)C(=O)Oc1c(Cl)cc(Cl)c2ccccc12	1.3
Cc1cc(OC(=O)N(C)C)nc(C(C)C)n1	15
CN(C)C(=O)Oc1ccc([N+](=O)[O-])cc1[N+](=O)[O-] [2,4-DINITROPHENYL DIMETHYLCARBAMATE]	0.8
CNC(=O)Oc1ccc(Cl)c(C)c1	1.1
CCN(CC)c1nc(C)cc(OC(=O)N(C)C)n1	20
CN(C)C(=O)Oc1ccc(C#N)cc1 [4-CYANOPHENYL DIMETHYLCARBAMATE]	14
CNC(=O)Oc1ccc(C#N)cc1 [4-CYANOPHENYL METHYLCARBAMATE]	1.1
CN(C)C(=O)Oc1cc(-c2ccccc2)on1	23
CCN(CC)C(=O)Oc1cc(C)nc(N(C)C)n1	13
CN(C)C(=O)Sc1ccc(Cl)cc1	1.9
CN(C)C(=O)Oc1ccc([N+](=O)[O-])cc1 [4-NITROPHENYL DIMETHYLCARBAMATE]	10
CCN(CC)C(=O)Oc1ccc(Cl)c(C)c1	1.8
Cc1c(OC(=O)N(C)C)cc([N+](=O)[O-])cc1[N+](=O)[O-]	1.1
Cc1ccc(OC(=O)N(C)C)c([N+](=O)[O-])c1	5.8
Cc1cc(OC(=O)Nc2ccccc2)ccc1[N+](=O)[O-]	0.9
CCN(CC)C(=O)Oc1cccc2ccccc12	2.5
CN(C)C(=O)Oc1ccc([N+](=O)[O-])c(C(F)(F)F)c1	8
CN(C)C(=O)Oc1nc(Cl)c(Cl)cc1Cl	4.1
Cc1cccc(OC(=O)N(C)C)c1 [M-TOLYL DIMETHYLCARBAMATE]	9.2
CSc1ccc(OC(=S)N(C)C)cc1	2.3
Cc1cc(OC(=O)N(C)C)no1	16
N#Cc1ccc(OC(=O)Nc2ccccc2)cc1 [4-CYANOPHENYL PHENYLCARBAMATE]	0.8
CN(C)C(=O)Oc1ccccc1 [PHENYL DIMETHYLCARBAMATE]	5.8
Cc1cc(OC(=O)N(C)C)cc(C)c1Cl	11
O=C(Nc1ccccc1)Oc1cccc2ccccc12	1
CN(C)C(=O)Oc1ccc(Cl)cc1 [4-CHLOROPHENYL DIMETHYLCARBAMATE]	10
CN(C)C(=O)Oc1cccc(C(C)(C)C)c1	3.5
Cc1nc(N(C)C)nc(OC(=O)N(C)C)c1C	6.3
CCN(CC)C(=O)Oc1cc(-c2ccccc2)on1	4.1
CN(C)CCOC(=O)N(C)C [2-(DIMETHYLAMINO)ETHYL DIMETHYLCARBAMATE]	1
CNC(=O)Oc1ccc(SC)cc1 [4-(METHYLTHIO)PHENYL METHYLCARBAMATE]	1.1
Cc1cc(OC(=S)N(C)C)ccc1[N+](=O)[O-]	1.3
Cc1cc(OC(=O)N(C)C)ccc1Cl	12
CCNC(=O)Oc1cccc2ccccc12	1
Cc1ccc([N+](=O)[O-])c(OC(=O)N(C)C)c1	3.1
CCN(CC)C(=O)Oc1ccc(SC)cc1 [4-(METHYLTHIO)PHENYL DIETHYLCARBAMATE]	2.9
CN(C)C(=O)Oc1ccc2ccccc2n1	15
Cc1cc(OC(=O)N(C)C)nc(-c2ccccc2)n1	13
CNC(=O)Oc1ccc([N+](=O)[O-])cc1 [4-NITROPHENYL METHYLCARBAMATE]	0.9
CCSCCOC(=O)N(C)C [2-(ETHYLTHIO)ETHYL DIMETHYLCARBAMATE]	1
Cc1cc(OC(=O)N(C)C)nc(C)n1	11
CCOC(=O)/C=C(\C)OC(=O)N(C)C	1
CN(C)C(=O)Oc1ccc([N+](=O)[O-])c(Cl)c1	6.3
CCNC(=O)Oc1ccc(SC)c(C)c1	0.6
CN(C)C(=O)Oc1cccc([N+](=O)[O-])c1 [3-NITROPHENYL DIMETHYLCARBAMATE]	8.2
Cc1cc(OC(=O)N(C)C)nc(Nc2ccccc2)n1	2.8
